Listed compounds paired with reported log10 CC50 at 6 days
experimental.protocol: Cytotoxicity determination in HepG2.2.15 cells (CCK-8)
Format: cell-based
experimental.setup: human, 6 days of compound treatment, CCK-8, highest concentration 100 μM
experimental.endpoint: log10 CC50 at 6 days (log10 of the value in µM)

>  <compound>
COC(=O)C1=C(C2CCN(S(=O)(=O)c3cn[nH]c3)CC2)NC(c2nccs2)=NC1c1cccc(F)c1Cl (stereo not shown) [Compound 158A]

>  <log10 CC50 at 6 days>
1.10

$$$$
>  <compound>
COC(=O)C1=C(C2CC2)NC(c2nccs2)=NC1c1ccc(F)cc1Cl (single isomer, unassigned) [Compound 90A]

>  <log10 CC50 at 6 days>
1.43

$$$$
>  <compound>
CCOC(=O)C1=C([C@H]2C[C@@H](NS(C)(=O)=O)C2(C)C)NC(c2nccs2)=NC1c1ccc(F)cc1Cl (mixture of isomers) [Compound 437]

>  <log10 CC50 at 6 days>
0.60

$$$$
>  <compound>
COC(=O)C1=C(C2CN(S(=O)(=O)C3CCCCC3)C2)NC(c2nccs2)=NC1c1ccc(F)cc1Cl (stereo not shown) [Compound 82]

>  <log10 CC50 at 6 days>
0.84

$$$$
>  <compound>
COC(=O)C1=C(C2CCN(S(C)(=O)=O)CC2)NC(c2nccs2)=NC1c1ccc(F)cc1Cl (stereo not shown) [Compound 103]

>  <log10 CC50 at 6 days>
1.94

$$$$
>  <compound>
COC(=O)C1=C(C2CCOCC2)NC(c2nccs2)=NC1c1cccc(F)c1Cl (single isomer, unassigned) [Compound 50B]

>  <log10 CC50 at 6 days>
1.55

$$$$
>  <compound>
COC(=O)C1=C([C@H]2CC[C@H](NS(C)(=O)=O)CC2)NC(c2nccs2)=NC1c1ccc(F)cc1Cl (single isomer, unassigned) [Compound 126B]

>  <log10 CC50 at 6 days>
1.50

$$$$
>  <compound>
COC(=O)C1=C([C@H]2CC[C@H](CC(=O)O)CC2)NC(c2nccs2)=NC1c1cccc(F)c1Cl (relative stereo) [Compound 29]

>  <log10 CC50 at 6 days>
1.53

$$$$
>  <compound>
COC(=O)C1=C([C@H]2C[C@@H](C)CO2)NC(c2nccs2)=NC1c1cccc(F)c1Cl (relative stereo) [Compound 171]

>  <log10 CC50 at 6 days>
1.19

$$$$
>  <compound>
COC(=O)C1=C(C2CCN(C(=O)C3CC3)CC2)NC(c2nccs2)=NC1c1ccc(F)cc1Cl (stereo not shown) [Compound 102]

>  <log10 CC50 at 6 days>
1.76

$$$$
>  <compound>
COC(=O)C1=C(C2CCN(S(=O)(=O)c3cnn(CC(O)C(F)(F)F)c3)CC2)NC(c2nccs2)=NC1c1ccc(F)c(F)c1Cl (stereo not shown) [Compound 325]

>  <log10 CC50 at 6 days>
0.90

$$$$
>  <compound>
COCCOCCOCCOCCS(=O)(=O)N1CCC(C2=C(C(=O)OC)C(c3ccc(F)cc3Cl)N=C(c3nccs3)N2)CC1 (stereo not shown) [Compound 460]

>  <log10 CC50 at 6 days>
1.30

$$$$
>  <compound>
COC(=O)C1=C([C@H]2CC[C@@H](S(=O)(=O)NC(C)C)CC2)NC(c2nccs2)=NC1c1ccc(F)c(F)c1Cl (single isomer, unassigned) [Compound 234B]

>  <log10 CC50 at 6 days>
1.21

$$$$
>  <compound>
COC(=O)C1=C([C@H]2CC[C@H](C(=O)O)CC2)NC(c2nccs2)=NC1c1ccc(F)c(F)c1C (stereo partly shown) [Compound 227A]

>  <log10 CC50 at 6 days>
1.58

$$$$
>  <compound>
COC(=O)C1=C([C@H]2CC[C@H](NS(=O)(=O)C3CN(C)C3)CC2)NC(c2nccs2)=NC1c1ccc(F)c(F)c1Cl (single isomer, unassigned) [Compound 251B]

>  <log10 CC50 at 6 days>
0.94

$$$$
>  <compound>
COC(=O)C1=C([C@H]2CC[C@H](N(CC(=O)O)S(C)(=O)=O)CC2)NC(c2nccs2)=NC1c1ccc(F)cc1Cl (relative stereo) [Compound 139]

>  <log10 CC50 at 6 days>
1.88

$$$$
>  <compound>
COC(=O)C1=C(C23CC(NS(=O)(=O)CCO)(C2)C3)NC(c2nccs2)=NC1c1ccc(F)cc1Cl (stereo not shown) [Compound 390B]

>  <log10 CC50 at 6 days>
1.66

$$$$
>  <compound>
COC(=O)C1=C([C@H]2CC[C@H](S(=O)(=O)NC(C)C)CC2)NC(c2nccs2)=NC1c1ccc(F)c(F)c1Cl (single isomer, unassigned) [Compound 234D]

>  <log10 CC50 at 6 days>
0.62

$$$$
>  <compound>
COC(=O)C1=C(C2CCN(S(=O)(=O)CC(O)CO)CC2)NC(c2nccs2)=NC1c1ccc(F)cc1Cl (single isomer, unassigned) [Compound 305A]

>  <log10 CC50 at 6 days>
1.56

$$$$
>  <compound>
COC(=O)C1=C(C23CC(NS(=O)(=O)C4CNC4)(C2)C3)NC(c2nccs2)=NC1c1ccc(F)c(F)c1Cl (stereo not shown) [Compound 406]

>  <log10 CC50 at 6 days>
0.75

$$$$
>  <compound>
COC(=O)C1=C(C2CCN(S(=O)(=O)C[C@H]3CC[C@H](C(=O)O)CC3)CC2)NC(c2nccs2)=NC1c1cccc(F)c1C (stereo partly shown) [Compound 444b]

>  <log10 CC50 at 6 days>
0.92

$$$$
>  <compound>
COC(=O)C1=C([C@H]2CC[C@H](NS(C)(=O)=O)CC2)NC(c2ncc(F)cc2F)=NC1c1ccc(F)cc1Cl (single isomer, unassigned) [Compound 396B]

>  <log10 CC50 at 6 days>
1.35

$$$$
>  <compound>
CCOC(=O)C1=C([C@H]2CC[C@H](C(=O)O)CC2)NC(c2nccs2)=NC1c1ccccc1Br (stereo partly shown) [Compound 148A]

>  <log10 CC50 at 6 days>
1.47

$$$$

###

Test system: HepG2.2.15 cells
experimental.protocol: Cytotoxicity determination in HepG2.2.15 cells (CCK-8)
Format: cell-based
experimental.setup: 6 days of compound treatment, CCK-8, highest concentration 100 μM

>  <molecule>
CCOC(=O)C1=C([C@@H]2CCC[C@H](C(=O)O)CC2)NC(c2nccs2)=NC1c1ccc(F)c(F)c1Cl (relative stereo) [Compound 302E]

>  <assayed.system>
HepG2.2.15 cells

>  <CC50>
14.6 µM

$$$$
>  <molecule>
CCOC(=O)C1=C(C2CCN(S(=O)(=O)[C@H]3C[C@H](C(=O)O)C3)CC2)NC(c2nccs2)=NC1c1ccc(F)c(F)c1C (single isomer, unassigned) [Compound 343C]

>  <assayed.system>
HepG2.2.15 cells

>  <CC50>
25.2 µM

$$$$
>  <molecule>
COC(=O)C1=C(C2CCN(S(=O)(=O)C3CC(C)(C(=O)O)C3)CC2)NC(c2nccs2)=NC1c1ccc(F)cc1Cl (stereo not drawn) [Compound 142]

>  <assayed.system>
HepG2.2.15 cells

>  <CC50>
37.6 µM

$$$$

###

experimental.protocol: Cytotoxicity determination in HepG2.2.15 cells (CCK-8)
Type: cell-based
experimental.setup: human, 6 days of compound treatment, CCK-8, highest concentration 100 μM

>  <compound>
COC(=O)C1=C(C2CCN(S(=O)(=O)C3CC(C)(C(=O)O)C3)CC2)NC(c2nccs2)=NC1c1ccc(F)cc1Cl (stereo not drawn) [Compound 141]

>  <CC50 at 6 days>
30.7 µM

$$$$
>  <compound>
COC(=O)C1=C([C@H]2CCC[C@@H](CO)C2)NC(c2nccs2)=NC1c1ccc(F)cc1Cl (single isomer, unassigned) [Compound 173A]

>  <CC50 at 6 days>
18.6 µM

$$$$
>  <compound>
COC(=O)C1=C(C2CCN(S(=O)(=O)[C@H]3C[C@H](C(=O)O)C3)CC2)NC(c2nccs2)=NC1c1ccc(F)c(F)c1Br (relative stereo) [Compound 162]

>  <CC50 at 6 days>
34.5 µM

$$$$
>  <compound>
COC(=O)C1=C(C2CCCC(NS(C)(=O)=O)CC2)NC(c2nccs2)=NC1c1ccc(F)cc1Cl (stereo not drawn) [Compound 190]

>  <CC50 at 6 days>
15 µM

$$$$
>  <compound>
CCOC(=O)C1=C(C2CCN(S(=O)(=O)[C@H]3C[C@H](C(=O)O)C3)CC2)NC(c2ncc(F)cc2F)=NC1c1ccc(F)c(F)c1Cl (stereo partly drawn) [Compound 352B]

>  <CC50 at 6 days>
29.4 µM

$$$$
>  <compound>
CCOC(=O)C1=C([C@@H]2CCN(S(C)(=O)=O)[C@@H](CO)C2)NC(c2nccs2)=NC1c1ccc(F)cc1Cl (single isomer, unassigned) [Compound 379C]

>  <CC50 at 6 days>
32.6 µM

$$$$
>  <compound>
COC(=O)C1=C(C2CCC(C(=O)O)C2)NC(c2nccs2)=NC1c1ccc(F)cc1Cl (single isomer, unassigned) [Compound 72C]

>  <CC50 at 6 days>
22.1 µM

$$$$
>  <compound>
CCOC(=O)C1=C(C2CCN(S(C)(=O)=O)CC2)NC(c2ncc(F)cc2F)=NC1c1ccc(F)cc1Cl (single isomer, unassigned) [Compound 56A]

>  <CC50 at 6 days>
> 10 µM

$$$$
>  <compound>
COC(=O)C1=C([C@H]2C[C@@H](CO)CO2)NC(c2nccs2)=NC1c1cccc(F)c1Cl (relative stereo) [Compound 221]

>  <CC50 at 6 days>
47.1 µM

$$$$
>  <compound>
CNS(=O)(=O)[C@H]1CC[C@@H](C2=C(C(=O)OC)C(c3cccc(F)c3Cl)N=C(c3nccs3)N2)CC1 (single isomer, unassigned) [Compound 259C]

>  <CC50 at 6 days>
12.7 µM

$$$$
>  <compound>
COC(=O)C1=C(C23CC(N(C[C@@H](O)CO)S(C)(=O)=O)(C2)C3)NC(c2nccs2)=NC1c1ccc(F)cc1Cl (single isomer, unassigned) [Compound 376C]

>  <CC50 at 6 days>
95 µM

$$$$
>  <compound>
CCOC(=O)C1=C([C@H]2CC[C@H](C(=O)O)CC2)NC(c2nccs2)=NC1c1cccc(F)c1Br (stereo partly drawn) [Compound 150A]

>  <CC50 at 6 days>
28.1 µM

$$$$
